Overview of recorded viability, T/C for various compounds
# Test system: PANC-1 complex spheroid growth, percent test/control
# run_description: Anticancer human tumor PANC-1 cell line growth inhibition [Asc];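 also: spheroids exposed to agents for 7 days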;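 as to viability, T/C: percent viability relative to DMSO vehicle wells taken as 100%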
# assay_setup: second compound 0.0949 µM; first compound 0.316 µM; stronger effect = lower value
# Source text: Multicellular complex tumor spheroid response to apoptosis pathway targeting inhibitors Alrizomadlin, Pelcitoclax, and Dasminapant in combination with a variety of drugs and investigational agents in selected tumor cell lines […] Compounds. […] If the clinical Cmax for an agent had not been determined, the highest concentration tested was 10 microM. […]
Only the number, expressed in %, is required.

O=C(c1ccc(F)c(F)c1Nc1ccc(I)cc1F)N1CC(O)([C@@H]2CCCCN2)C1 + CCN1C(C(=O)NC23CCC(C(=O)O)(CC2)CC3)C(c2cccc(Cl)c2F)C2(C(=O)Nc3cc(Cl)ccc32)C12CCCCC2: 92.4
C#Cc1c(F)ccc2cc(O)cc(-c3ncc4c(N5CC6CCC(C5)N6)nc(OCC56CCCN5CC(F)C6)nc4c3F)c12 (centres undefined) + CCN1C(C(=O)NC23CCC(C(=O)O)(CC2)CC3)C(c2cccc(Cl)c2F)C2(C(=O)Nc3cc(Cl)ccc32)C12CCCCC2: 85
O=C(c1cc(Cc2n[nH]c(=O)c3ccccc23)ccc1F)N1CCN(C(=O)C2CC2)CC1 + CCN1C(C(=O)NC23CCC(C(=O)O)(CC2)CC3)C(c2cccc(Cl)c2F)C2(C(=O)Nc3cc(Cl)ccc32)C12CCCCC2: 99.5

Challenge: Kindly state the measured viability, T/C obtained for C=C(F)C(=O)N1CCN(c2nc(OCC3CCCN3C)nc3c2CCN(c2cccc4cccc(Cl)c24)C3)CC1CC#N (centres undefined) + CCN1C(C(=O)NC23CCC(C(=O)O)(CC2)CC3)C(c2cccc(Cl)c2F)C2(C(=O)Nc3cc(Cl)ccc32)C12CCCCC2 with PANC-1 complex spheroid growth, percent test/control.
Response given: 108

* * *

Overview of recorded viability, T/C for various compounds
# Test system: PANC-1 complex spheroid growth, percent test/control
# run_description: Anticancer human tumor PANC-1 cell line growth inhibition [Asc];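 also: spheroids exposed to agents for 7 days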;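 as to viability, T/C: percent viability relative to DMSO vehicle wells taken as 100%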
# assay_setup: second compound 0.316 µM; first compound 0.0949 µM; stronger effect = lower value
Only the number, expressed in %, is required.

NC(=O)C(=Cn1cnc(-c2cc(C(F)(F)F)cc(C(F)(F)F)c2)n1)c1cncnc1 + CNC(C)C(=O)NC1CN(S(=O)(=O)c2cccc(S(=O)(=O)N3CCC4CCC(C(=O)NC(c5ccccc5)c5ccccc5)N4C(=O)C(NC(=O)C(C)NC)C3)c2)CCC2CCC(C(=O)NC(c3ccccc3)c3ccccc3)N2C1=O: 103

Challenge: I am curious: what viability, T/C value has been reported for Cc1nc(N2CCC3(CC2)COC(C)C3N)c(CO)nc1Sc1ccnc(N)c1Cl (configuration not stated) + Cc1c(S(C)(=O)=O)c(-c2cc(F)cc(N3CCN(c4ccc(NS(=O)(=O)c5ccc(NC(CCN6CCC(C(=O)OCCCP(=O)(O)O)CC6)CSc6ccccc6)c(S(=O)(=O)C(F)(F)F)c5)cc4)CC3)c2)c(-c2ccc(Cl)cc2)n1C(C)C ?
Response given: 89.8

* * *

Overview of recorded viability, T/C for various compounds
# Tested on: PANC-1 complex spheroid growth, percent test/control
# run_description: Anticancer human tumor PANC-1 cell line growth inhibition [Asc];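 also: spheroids exposed to agents for 7 days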;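 as to viability, T/C: percent viability relative to DMSO vehicle wells taken as 100%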
# assay_setup: second compound 0.00949 µM; first compound 0.00316 µM; stronger effect = lower value
Only the number, expressed in %, is required.

Below are worked cases with known answers.
CCN1CCN(Cc2ccc(Nc3ncc(F)c(-c4cc(F)c5nc(C)n(C(C)C)c5c4)n3)nc2)CC1 + CCN1C(C(=O)NC23CCC(C(=O)O)(CC2)CC3)C(c2cccc(Cl)c2F)C2(C(=O)Nc3cc(Cl)ccc32)C12CCCCC2: 112
CNC(C)C(=O)NC1CN(S(=O)(=O)c2cccc(S(=O)(=O)N3CCC4CCC(C(=O)NC(c5ccccc5)c5ccccc5)N4C(=O)C(NC(=O)C(C)NC)C3)c2)CCC2CCC(C(=O)NC(c3ccccc3)c3ccccc3)N2C1=O (stereo unspecified) + CCN1C(C(=O)NC23CCC(C(=O)O)(CC2)CC3)C(c2cccc(Cl)c2F)C2(C(=O)Nc3cc(Cl)ccc32)C12CCCCC2: 104
NC1CCC(NC2CC2c2ccccc2)CC1 (stereo unspecified) + CCN1C(C(=O)NC23CCC(C(=O)O)(CC2)CC3)C(c2cccc(Cl)c2F)C2(C(=O)Nc3cc(Cl)ccc32)C12CCCCC2: 97.2

Challenge: Kindly state the measured viability, T/C obtained for COc1c(OCCCN2CCOCC2)ccc2c3n(c(=NC(=O)c4cnc(N)nc4)nc12)CCN3 + CCN1C(C(=O)NC23CCC(C(=O)O)(CC2)CC3)C(c2cccc(Cl)c2F)C2(C(=O)Nc3cc(Cl)ccc32)C12CCCCC2 with PANC-1 complex spheroid growth, percent test/control.
Response given: 87.6

Challenge: Kindly state the measured viability, T/C obtained for Cn1ncnc1[C@H]1c2n[nH]c(=O)c3cc(F)cc(c23)N[C@@H]1c1ccc(F)cc1 + CCN1C(C(=O)NC23CCC(C(=O)O)(CC2)CC3)C(c2cccc(Cl)c2F)C2(C(=O)Nc3cc(Cl)ccc32)C12CCCCC2 with PANC-1 complex spheroid growth, percent test/control.
Response given: 97.4

Challenge: Kindly state the measured viability, T/C obtained for O=C(c1ccc(F)c(F)c1Nc1ccc(I)cc1F)N1CC(O)([C@@H]2CCCCN2)C1 + CCN1C(C(=O)NC23CCC(C(=O)O)(CC2)CC3)C(c2cccc(Cl)c2F)C2(C(=O)Nc3cc(Cl)ccc32)C12CCCCC2 with PANC-1 complex spheroid growth, percent test/control.
Response given: 90.7

* * *

# System: PANC-1 complex spheroid growth, percent test/control
# run_description: Anticancer human tumor PANC-1 cell line growth inhibition [Asc];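 also: spheroids exposed to agents for 7 days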;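 as to viability, T/C: percent viability relative to DMSO vehicle wells taken as 100%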
# assay_setup: second compound 0.0316 µM; first compound 0.316 µM; stronger effect = lower value
experimental_readout: viability, T/C

C=CC(=O)N1CCN(c2nc(=O)n(-c3c(C)ccnc3C(C)C)c3nc(-c4c(O)cccc4F)c(F)cc23)C(C)C1 (configuration not stated) + CNC(C)C(=O)NC1CN(S(=O)(=O)c2cccc(S(=O)(=O)N3CCC4CCC(C(=O)NC(c5ccccc5)c5ccccc5)N4C(=O)C(NC(=O)C(C)NC)C3)c2)CCC2CCC(C(=O)NC(c3ccccc3)c3ccccc3)N2C1=O: 102%

Below: the item to evaluate.
Challenge: I am curious: what viability, T/C value has been reported for O=C(c1cc(Cc2n[nH]c(=O)c3ccccc23)ccc1F)N1CCN(C(=O)C2CC2)CC1 + Cc1c(S(C)(=O)=O)c(-c2cc(F)cc(N3CCN(c4ccc(NS(=O)(=O)c5ccc(NC(CCN6CCC(C(=O)OCCCP(=O)(O)O)CC6)CSc6ccccc6)c(S(=O)(=O)C(F)(F)F)c5)cc4)CC3)c2)c(-c2ccc(Cl)cc2)n1C(C)C ?
Response given: 107%

* * *

Overview of recorded pIC50 for various compounds
# Tested on: PANC-1 complex spheroid growth, percent test/control
# run_description: Anticancer human tumor PANC-1 cell line growth inhibition [Asc];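 also: spheroids exposed to agents for 7 days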
# assay_setup: curve of first compound; second compound 0.0949 µM
# From the text: Multicellular complex tumor spheroid response to apoptosis pathway targeting inhibitors Alrizomadlin, Pelcitoclax, and Dasminapant in combination with a variety of drugs and investigational agents in selected tumor cell lines […] Compounds. […] If the clinical Cmax for an agent had not been determined, the highest concentration tested was 10 microM. […]
pIC50: −log10 of the molar value.

Below are worked cases with known answers.
NC1CCC(NC2CC2c2ccccc2)CC1 (stereo not drawn) + CCN1C(C(=O)NC23CCC(C(=O)O)(CC2)CC3)C(c2cccc(Cl)c2F)C2(C(=O)Nc3cc(Cl)ccc32)C12CCCCC2: < 7.00
O=C(c1cc(Cc2n[nH]c(=O)c3ccccc23)ccc1F)N1CCN(C(=O)C2CC2)CC1 + CCN1C(C(=O)NC23CCC(C(=O)O)(CC2)CC3)C(c2cccc(Cl)c2F)C2(C(=O)Nc3cc(Cl)ccc32)C12CCCCC2: < 5.00

Below: the item to evaluate.
Challenge: I am curious: what pIC50 value has been reported for CNC(C)C(=O)NC1CN(S(=O)(=O)c2cccc(S(=O)(=O)N3CCC4CCC(C(=O)NC(c5ccccc5)c5ccccc5)N4C(=O)C(NC(=O)C(C)NC)C3)c2)CCC2CCC(C(=O)NC(c3ccccc3)c3ccccc3)N2C1=O (stereo not drawn) + CCN1C(C(=O)NC23CCC(C(=O)O)(CC2)CC3)C(c2cccc(Cl)c2F)C2(C(=O)Nc3cc(Cl)ccc32)C12CCCCC2 ?
Response given: < 6.00

* * *

# Test system: PANC-1 complex spheroid growth, percent test/control
# run_description: Anticancer human tumor PANC-1 cell line growth inhibition [Asc];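 also: spheroids exposed to agents for 7 days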;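 as to viability, T/C: percent viability relative to DMSO vehicle wells taken as 100%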
# assay_setup: second compound 0.0316 µM; first compound 3.16 µM; stronger effect = lower value
experimental_readout: viability, T/C (%)
Only the number, expressed in %, is required.

Below are worked cases with known answers.
C#Cc1c(F)ccc2cc(O)cc(-c3ncc4c(N5CC6CCC(C5)N6)nc(OCC56CCCN5CC(F)C6)nc4c3F)c12 (stereo not drawn) + CNC(C)C(=O)NC1CN(S(=O)(=O)c2cccc(S(=O)(=O)N3CCC4CCC(C(=O)NC(c5ccccc5)c5ccccc5)N4C(=O)C(NC(=O)C(C)NC)C3)c2)CCC2CCC(C(=O)NC(c3ccccc3)c3ccccc3)N2C1=O: 79.7
C=CC(=O)N1CCN(c2nc(=O)n(-c3c(C)ccnc3C(C)C)c3nc(-c4c(O)cccc4F)c(F)cc23)C(C)C1 (stereo not drawn) + CNC(C)C(=O)NC1CN(S(=O)(=O)c2cccc(S(=O)(=O)N3CCC4CCC(C(=O)NC(c5ccccc5)c5ccccc5)N4C(=O)C(NC(=O)C(C)NC)C3)c2)CCC2CCC(C(=O)NC(c3ccccc3)c3ccccc3)N2C1=O: 105

Below: the item to evaluate.
Challenge: I am curious: what viability, T/C value has been reported for C#Cc1c(F)ccc2cc(O)cc(-c3ncc4c(N5CC6CCC(C5)N6)nc(OCC56CCCN5CC(F)C6)nc4c3F)c12 (stereo not drawn) + Cc1c(S(C)(=O)=O)c(-c2cc(F)cc(N3CCN(c4ccc(NS(=O)(=O)c5ccc(NC(CCN6CCC(C(=O)OCCCP(=O)(O)O)CC6)CSc6ccccc6)c(S(=O)(=O)C(F)(F)F)c5)cc4)CC3)c2)c(-c2ccc(Cl)cc2)n1C(C)C ?
Response given: 83.5
